For each record, write down the corresponding inhibition.
Biological target: 3-hydroxyanthranilate 3,4-dioxygenase (Rattus norvegicus)
Experiment: Inhibition of 3-HAO in Sprague-Dawley rat brain homogenates using [1-14C]-3-HANA as substrate assessed as [14C]-QUIN production at 1 mM after 1 hr by liquid scintillation spectrometric analysis relative to control
Type: tissue-based
Field: numeric (%). Do not append units.

Respond only with inhibition recorded for `Nc1c(C(=O)O)ccc(Cl)[n+]1[O-]` 95.2

Respond only with inhibition recorded for `Cc1cc(C(=O)O)c(N)[n+]([O-])c1` 67.6

Respond only with inhibition recorded for `Cc1ccc(C#N)c(N)[n+]1[O-]` 2.4

Respond only with inhibition recorded for `CCc1ccc(C(=O)O)c(N)[n+]1[O-]` 94.2

Respond only with inhibition recorded for `Cc1cc(C(C)C)c(C(=O)O)c(N)[n+]1[O-]` 25.7

Respond only with inhibition recorded for `Cc1ccc(C(=O)O)c(N)n1` 42.5

Respond only with inhibition recorded for `CC(C)c1cc(C(C)C)[n+]([O-])c(N)c1C(=O)O` 14.6

Respond only with inhibition recorded for `O=c1[nH]cnc2c1ccc[n+]2[O-]` 46.9

Respond only with inhibition recorded for `Cc1ccc(C(N)=O)c(N)[n+]1[O-]` 11.5

Respond only with inhibition recorded for `Cc1cc(-c2ccccc2)c(C(=O)O)c(N)[n+]1[O-]` 14.8

Respond only with inhibition recorded for `CCc1cc(C)[n+]([O-])c(N)c1C(=O)O` 23

Respond only with inhibition recorded for `Nc1c(C(=O)O)cc(Cl)c[n+]1[O-]` 74.4

Respond only with inhibition recorded for `Cc1ccc(C(=O)O)c(N)[n+]1[O-]` 96

Respond only with inhibition recorded for `O=C(O)c1ccc(Cl)[n+]([O-])c1` 37

Respond only with inhibition recorded for `Nc1c(C(=O)O)ccc[n+]1[O-]` 92.4

Respond only with inhibition recorded for `Cc1cc(C)[n+]([O-])c(N)c1C(=O)O` 46.6

Respond only with inhibition recorded for `Nc1c(C(=O)O)cc(Br)c[n+]1[O-]` 83.7

Respond only with inhibition recorded for `Cc1cc(C(=O)O)c(N)[n+]([O-])c1C` 85.8

Respond only with inhibition recorded for `COC(=O)c1ccc(C)[n+]([O-])c1N` 9.3

====

Biological target: 3-hydroxyanthranilate 3,4-dioxygenase (Homo sapiens) (UniProt P46952)
Sequence (P46952 whole entry): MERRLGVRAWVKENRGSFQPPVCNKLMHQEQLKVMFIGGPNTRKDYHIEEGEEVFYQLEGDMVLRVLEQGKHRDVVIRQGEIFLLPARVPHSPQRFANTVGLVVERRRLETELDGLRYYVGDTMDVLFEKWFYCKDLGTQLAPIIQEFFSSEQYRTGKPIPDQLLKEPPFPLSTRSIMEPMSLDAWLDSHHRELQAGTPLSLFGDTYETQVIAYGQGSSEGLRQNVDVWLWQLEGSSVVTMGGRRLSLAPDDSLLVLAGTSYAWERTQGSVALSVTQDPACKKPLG
Experiment: Inhibition of 3-HAO in human brain homogenates using [1-14C]-3-HANA as substrate assessed as [14C]-QUIN production at 1 mM after 1 hr by liquid scintillation spectrometric analysis relative to control
Format: tissue-based
VALUE KIND: inhibition
Please report the result as a number followed by the unit.

Recall the reported inhibition of `CCc1ccc(C(=O)O)c(N)[n+]1[O-]` when tested on 3-hydroxyanthranilate 3,4-dioxygenase (Homo sapiens) (UniProt P46952). 90.4%

Recall the reported inhibition of `O=C(O)c1ccc(Cl)[n+]([O-])c1` when tested on 3-hydroxyanthranilate 3,4-dioxygenase (Homo sapiens) (UniProt P46952). 30.4%

Recall the reported inhibition of `Nc1c(C(=O)O)cc(Cl)c[n+]1[O-]` when tested on 3-hydroxyanthranilate 3,4-dioxygenase (Homo sapiens) (UniProt P46952). 85.9%

Recall the reported inhibition of `Cc1ccc(C(=O)O)c(N)[n+]1[O-]` when tested on 3-hydroxyanthranilate 3,4-dioxygenase (Homo sapiens) (UniProt P46952). 94.4%

Recall the reported inhibition of `O=c1[nH]cnc2c1ccc[n+]2[O-]` when tested on 3-hydroxyanthranilate 3,4-dioxygenase (Homo sapiens) (UniProt P46952). 44.3%

Recall the reported inhibition of `Cc1ccc(C#N)c(N)[n+]1[O-]` when tested on 3-hydroxyanthranilate 3,4-dioxygenase (Homo sapiens) (UniProt P46952). 5.6%

Recall the reported inhibition of `Cc1ccc(C(N)=O)c(N)[n+]1[O-]` when tested on 3-hydroxyanthranilate 3,4-dioxygenase (Homo sapiens) (UniProt P46952). 20.1%

Recall the reported inhibition of `Nc1c(C(=O)O)cc(Br)c[n+]1[O-]` when tested on 3-hydroxyanthranilate 3,4-dioxygenase (Homo sapiens) (UniProt P46952). 89.1%

Recall the reported inhibition of `Cc1ccc(C(=O)O)c(N)n1` when tested on 3-hydroxyanthranilate 3,4-dioxygenase (Homo sapiens) (UniProt P46952). 24.8%

Recall the reported inhibition of `CCc1cc(C)[n+]([O-])c(N)c1C(=O)O` when tested on 3-hydroxyanthranilate 3,4-dioxygenase (Homo sapiens) (UniProt P46952). 20%

Recall the reported inhibition of `Nc1c(C(=O)O)ccc(Cl)[n+]1[O-]` when tested on 3-hydroxyanthranilate 3,4-dioxygenase (Homo sapiens) (UniProt P46952). 95.2%

Recall the reported inhibition of `CC(C)c1cc(C(C)C)[n+]([O-])c(N)c1C(=O)O` when tested on 3-hydroxyanthranilate 3,4-dioxygenase (Homo sapiens) (UniProt P46952). 10.6%

Recall the reported inhibition of `COC(=O)c1ccc(C)[n+]([O-])c1N` when tested on 3-hydroxyanthranilate 3,4-dioxygenase (Homo sapiens) (UniProt P46952). 6%

Recall the reported inhibition of `Cc1cc(-c2ccccc2)c(C(=O)O)c(N)[n+]1[O-]` when tested on 3-hydroxyanthranilate 3,4-dioxygenase (Homo sapiens) (UniProt P46952). 7.4%

====

Target: 3-hydroxyanthranilate 3,4-dioxygenase (Homo sapiens)
Assay: Inhibition of 3-HAO in human brain homogenates using [1-14C]-3-HANA as substrate assessed as [14C]-QUIN production at 10 uM after 1 hr by liquid scintillation spectrometric analysis relative to control
Format: tissue-based
For each record, write down the corresponding inhibition.
Field: numeric (%). Do not append units.

Respond only with inhibition recorded for `Nc1c(C(=O)O)ccc(Cl)[n+]1[O-]` 72.9

Respond only with inhibition recorded for `Cc1ccc(C#N)c(N)[n+]1[O-]` -2.9

Respond only with inhibition recorded for `CC(C)c1cc(C(C)C)[n+]([O-])c(N)c1C(=O)O` -5.4

Respond only with inhibition recorded for `Cc1cc(C)[n+]([O-])c(N)c1C(=O)O` 0.7

Respond only with inhibition recorded for `COC(=O)c1ccc(C)[n+]([O-])c1N` -7.9

Respond only with inhibition recorded for `Cc1cc(-c2ccccc2)c(C(=O)O)c(N)[n+]1[O-]` -2.8

Respond only with inhibition recorded for `Nc1c(C(=O)O)ccc[n+]1[O-]` 74

Respond only with inhibition recorded for `Cc1ccc(C(N)=O)c(N)[n+]1[O-]` 1.7

Respond only with inhibition recorded for `Cc1cc(C(C)C)c(C(=O)O)c(N)[n+]1[O-]` 4

Respond only with inhibition recorded for `Nc1c(C(=O)O)cc(Cl)c[n+]1[O-]` 24.8

Respond only with inhibition recorded for `O=c1[nH]cnc2c1ccc[n+]2[O-]` 5.5

Respond only with inhibition recorded for `CCc1ccc(C(=O)O)c(N)[n+]1[O-]` 76.6

Respond only with inhibition recorded for `Cc1cc(C(=O)O)c(N)[n+]([O-])c1C` 31.3

Respond only with inhibition recorded for `Cc1ccc(C(=O)O)c(N)n1` -3.6

====

For each record, write down the corresponding remaining at 24 h, 100 µM.
Assay: Drug degradation in PBS buffer assessed as parent compound level at 100 uM after 24 hrs by HPLC/UV-vis spectroscopic analysis
Assay type: physicochemical
Conditions: read-out: Stability
Field: numeric (%). Do not append units.

Respond only with remaining at 24 h, 100 µM recorded for `Nc1c(C(=O)O)ccc[n+]1[O-]` 103

Respond only with remaining at 24 h, 100 µM recorded for `Cc1ccc(C(=O)O)c(N)[n+]1[O-]` 102

====

For each record, write down the corresponding inhibition.
Molecular target: 3-hydroxyanthranilate 3,4-dioxygenase (Rattus norvegicus) (UniProt P46953)
Sequence (whole entry): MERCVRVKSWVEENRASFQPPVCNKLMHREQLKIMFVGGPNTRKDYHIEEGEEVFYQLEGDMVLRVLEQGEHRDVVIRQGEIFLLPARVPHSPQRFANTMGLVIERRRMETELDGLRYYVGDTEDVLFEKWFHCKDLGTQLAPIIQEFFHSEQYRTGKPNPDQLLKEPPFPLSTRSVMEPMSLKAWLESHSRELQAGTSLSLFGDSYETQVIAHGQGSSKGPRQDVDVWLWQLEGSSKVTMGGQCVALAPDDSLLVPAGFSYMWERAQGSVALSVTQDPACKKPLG
Experiment: Inhibition of 3-HAO in Sprague-Dawley rat brain homogenates using [1-14C]-3-HANA as substrate assessed as [14C]-QUIN production at 10 uM after 1 hr by liquid scintillation spectrometric analysis relative to control
Format: tissue-based
Field: numeric (%). Do not append units.

Respond only with inhibition recorded for `Nc1c(C(=O)O)cc(Br)c[n+]1[O-]` 14.5

Respond only with inhibition recorded for `Cc1ccc(C(=O)O)c(N)n1` -2.1

Respond only with inhibition recorded for `CCc1cc(C)[n+]([O-])c(N)c1C(=O)O` 2.8

Respond only with inhibition recorded for `Cc1cc(C)[n+]([O-])c(N)c1C(=O)O` -0.8

Respond only with inhibition recorded for `O=C(O)c1ccc(Cl)[n+]([O-])c1` 2.9

Respond only with inhibition recorded for `Cc1cc(C(C)C)c(C(=O)O)c(N)[n+]1[O-]` 1.1

Respond only with inhibition recorded for `Nc1c(C(=O)O)ccc[n+]1[O-]` 47.6

Respond only with inhibition recorded for `Nc1c(C(=O)O)cc(Cl)c[n+]1[O-]` 9.1

Respond only with inhibition recorded for `Cc1cc(-c2ccccc2)c(C(=O)O)c(N)[n+]1[O-]` 2.4

Respond only with inhibition recorded for `Cc1ccc(C#N)c(N)[n+]1[O-]` -2.4

Respond only with inhibition recorded for `Cc1ccc(C(N)=O)c(N)[n+]1[O-]` -1.1

Respond only with inhibition recorded for `Cc1cc(C(=O)O)c(N)[n+]([O-])c1` 8.7

Respond only with inhibition recorded for `CC(C)c1cc(C(C)C)[n+]([O-])c(N)c1C(=O)O` 1.2

Reference source for all entries: ChEMBL document CHEMBL3108765
